TEST_NAME: Phase I study CXR1002-001: plasma pharmacokinetics (LC-MS/MS)
Format: in vivo, human
SETUP_CONDITIONS: human, plasma, oral, 750 mg, Patient 028, 750 mg, person, plasma, 506 hr; read-out: Concentration

MOLECULE	UNIT_TAG	concentration at 506 h
O=C(O)C(F)(F)C(F)(F)C(F)(F)C(F)(F)C(F)(F)C(F)(F)C(F)(F)F [CXR1002]	µM	582

---

TEST_NAME: Phase I study CXR1002-001: plasma pharmacokinetics (LC-MS/MS)
Format: in vivo, human
SETUP_CONDITIONS: human, plasma, oral, 200 mg, Patient 009 Dose 200 mg; 528 hr (Day 23); read-out: Concentration

QUERY_SMILES	concentration at 528 h
O=C(O)C(F)(F)C(F)(F)C(F)(F)C(F)(F)C(F)(F)C(F)(F)C(F)(F)F	242 µM

---

TEST_NAME: Phase I study CXR1002-001: plasma pharmacokinetics (LC-MS/MS)
Type: in vivo, human
SETUP_CONDITIONS: human, plasma, po, 1000 mg, Patient 042, 1000 mg weekly oral dose, Time 24 hr (Day 2); read-out: Concentration (plasma level)
Source text: PK samples, PD (fasting) samples, blood glucose, and blood triglyceride samples, were taken over a 6-week period. Dose limiting toxicity (DLT) will be based on the toxicity assessments over the first 3-week period of the repeat dosing schedule. […]

QUERY_SMILES	concentration at 24 hr, µM
O=C(O)C(F)(F)C(F)(F)C(F)(F)C(F)(F)C(F)(F)C(F)(F)C(F)(F)F	239

---

TEST_NAME: Phase I study CXR1002-001: plasma pharmacokinetics (LC-MS/MS)
Assay type: in vivo, human
SETUP_CONDITIONS: human, plasma, oral, 100 mg, Patient 005 Dose 100 mg; 336 hr (Day 15); read-out: Concentration
ENDPOINT: concentration at 336 h (µM)

QUERY_SMILES	UNIT_TAG	VALUE_OBSERVED
O=C(O)C(F)(F)C(F)(F)C(F)(F)C(F)(F)C(F)(F)C(F)(F)C(F)(F)F	µM	47.8

---

TEST_NAME: Phase I study CXR1002-001: plasma pharmacokinetics (LC-MS/MS)
Format: in vivo, human
SETUP_CONDITIONS: human, plasma, oral, 750 mg, Patient 026, 750 mg, person, plasma, 170 hr; read-out: Concentration
ENDPOINT: concentration at 170 h (µM)

QUERY_SMILES	ENDPOINT	UNIT_TAG	VALUE_OBSERVED
O=C(O)C(F)(F)C(F)(F)C(F)(F)C(F)(F)C(F)(F)C(F)(F)C(F)(F)F	concentration at 170 h	µM	270

---

TEST_NAME: Phase I study CXR1002-001: plasma pharmacokinetics (LC-MS/MS)
Assay type: in vivo, human
SETUP_CONDITIONS: human, plasma, oral, 1000 mg, Patient 040, 1000 mg, person, plasma, 676 hr; read-out: Concentration

QUERY_SMILES	concentration at 676 h / µM
O=C(O)C(F)(F)C(F)(F)C(F)(F)C(F)(F)C(F)(F)C(F)(F)C(F)(F)F	607

---

TEST_NAME: Phase I study CXR1002-001: plasma pharmacokinetics (LC-MS/MS)
Type: in vivo, human
SETUP_CONDITIONS: human, plasma, oral, 50 mg, Patient 004 Dose 50 mg; 504 hr (Day 22); read-out: Concentration

QUERY_SMILES	concentration at 504 h
O=C(O)C(F)(F)C(F)(F)C(F)(F)C(F)(F)C(F)(F)C(F)(F)C(F)(F)F	33.4 µM
